- Assay Details: MAGI toxicity
- Conditions Used: human, MAGI cells, MAGI -Toxicity TC50
Metric: CC50

Q. Indicate its recorded CC50; the molecule in question is c1ccc(Cc2cn[nH]c2C2CCN(Cc3ccncc3)CC2)cc1
A. > 300 µM

###

- Assay Target: HIV-1 reverse transcriptase (Human immunodeficiency virus type 1 group M subtype B)
- Assay Details: biochemical
- Assay type: biochemical
- Conditions Used: read-out: Isolated HIV-RT Inhibition IC50
Metric: IC50
Answer with the figure and its unit, nothing else.

Q. Recall the reported IC50 of c1ccc(Cc2cn[nH]c2C2CCN(Cc3ccncc3)CC2)cc1 when tested on HIV-1 reverse transcriptase (Human immunodeficiency virus type 1 group M subtype B).
A. 9 µM

###

- System: HIV-1 Ba-L
- Assay Details: HIV-1 MAGI assay, Ba-L (CCR5 / M-tropic)
- Assay type: cell-based
- Conditions Used: Human immunodeficiency virus 1, BAL; read-out: MAGI - HIV-1Ba-L (CCR5) IC50
Metric: pIC50
Numbers only, as −log10 of the molar value.

Q. Indicate its recorded pIC50; the compound in question is c1ccc(Cc2cn[nH]c2C2CCN(Cc3ccncc3)CC2)cc1 [Compound 4]
A. 5.42

###

- Assay Details: in vitro
- Format: cell-based
- Conditions Used: human
Metric: CC50

Q. Indicate its recorded CC50; the compound in question is c1ccc(Cc2cn[nH]c2C2CCN(Cc3ccncc3)CC2)cc1
A. > 200 µM

###

- Assay Details: MAGI toxicity
- Conditions Used: human, MAGI cells, TC50, table of synthesized compounds
Assignment: determine reported CC50 for the given compounds.

Q. Indicate its recorded CC50; the compound in question is Clc1ccc(CN2CCC(c3[nH]ncc3Cc3ccccc3)CC2)cc1
A. 18.6 µM

The following compounds each have a reported value; give each one's CC50.
1. c1ccc(Cc2cn[nH]c2C2CCN(Cc3ccccc3)CC2)cc1
2. c1ccc(Cc2cn[nH]c2C2CCN(Cc3ccc4ccccc4c3)CC2)cc1 [drawing 85]

A.
1. > 100 µM
2. 16.8 µM

###

- System: HIV-1 IIIB
- Assay Details: HIV-1 MAGI assay, IIIB (CXCR4 / T-tropic)
- Type: cell-based
- Conditions Used: Human immunodeficiency virus 1, IIIB, MAGI; table of synthesized compounds; read-out: X4-IC50
Assignment: determine reported pIC50 for the given compounds.
Give bare numbers, as −log10 of the molar value.

Sample answers from the record:
Q. Indicate its recorded pIC50; the compound in question is CS(=O)(=O)c1ccc(CN2CCC(c3[nH]ncc3Cc3ccccc3)CC2)cc1
A. 6.00

Q. Indicate its recorded pIC50; the compound in question is c1ccc(Cc2cn[nH]c2C2CCN(CC3CCCCC3)CC2)cc1
A. 4.23

Q. Indicate its recorded pIC50; the compound in question is c1ccc(Cc2cn[nH]c2C2CCN(Cc3ccccn3)CC2)cc1
A. 4.61

Q. Indicate its recorded pIC50; the compound in question is c1ccc(Cc2cn[nH]c2C2CCN(Cc3ccc4ccccc4c3)CC2)cc1 [drawing 85]
A. 5.39

Q. Indicate its recorded pIC50; the compound in question is Clc1cnccc1CN1CCC(c2[nH]ncc2Cc2ccccc2)CC1 [drawing 92]
A. 6.68

The following compounds each have a reported value; give each one's pIC50.
1. Clc1cc(CN2CCC(c3[nH]ncc3Cc3ccccc3)CC2)ccn1 [drawing 93]
2. c1ccc(Cc2cn[nH]c2C2CCN(Cc3cccc4ccccc34)CC2)cc1 [drawing 86]
3. Clc1ccc(CN2CCC(c3[nH]ncc3Cc3ccccc3)CC2)cc1
4. N#Cc1ccc(CN2CCC(c3[nH]ncc3Cc3ccccc3)CC2)cc1
5. c1ccc(Cc2cn[nH]c2C2CCN(Cc3ccccc3)CC2)cc1

A.
[6.55, 5.17, 5.27, 5.28, 4.89]
